Molecular target: T1, ZFP SBS#1296 (synthetic)
T1 chain: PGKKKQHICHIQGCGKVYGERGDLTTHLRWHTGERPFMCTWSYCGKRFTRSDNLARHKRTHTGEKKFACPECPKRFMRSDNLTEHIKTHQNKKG
Experiment: EMSA
Details: tags: MBP fusion
EXPERIMENTAL ENDPOINT: pKd
Hey, just a heads up that pKd is the negative log base 10 of the concentration in molar.

Asked: # lookup: pKd of CAGGAGTCC (dsDNA) DNA 1: CAGGAGTCC DNA 2: GGACTCCTG
Given back: 7.43
